# Tested on: Bacillus subtilis NCTC 10073
# assay notes: MIC in Nutrient Broth No. 2
# Format: cell-based
# particulars: Nutrient Broth No. 2; with inducer 100 μg/ml
endpoint name: MIC (µg/mL)
Please reply with the bare figure in µg/mL and do not write the unit itself.

# input MIC for OC[C@H]1O[C@H](Oc2cc(Cl)ccc2Oc2ccc(Cl)cc2Cl)[C@@H](O)[C@@H](O)[C@@H]1O [α-D-Mannoside, triclosan-α-D-mannopyranoside] ?
# output 256

# input MIC for OC[C@H]1O[C@H](Oc2cc(Cl)ccc2Oc2ccc(Cl)cc2Cl)[C@H](O)[C@@H](O)[C@@H]1O [α-D-Glucoside, triclosan-α-D-glucopyranoside] ?
# output 32

# input MIC for OC[C@H]1O[C@@H](Oc2cc(Cl)ccc2Oc2ccc(Cl)cc2Cl)[C@H](O)[C@@H](O)[C@@H]1O [β-D-Glucoside, triclosan-β-D-glucopyranoside] ?
# output 32

# input MIC for O[C@@H]1[C@H](Oc2cc(Cl)ccc2Oc2ccc(Cl)cc2Cl)OC[C@@H](O)[C@H]1O [β-D-Arabinoside, triclosan-β-D-arabinopyranoside] ?
# output 128

Origin of measurements: patent US9908912B2
